# System: Fibroblast
# method-summary: Multiplex assay against human fibroblast
# Assay type: toxicity, cell-based
# particulars: 24 h, 1 µM, compound concentration 1 uM, replicate 1
For each record, write down the corresponding Population Pyknosed Nuclei (%).
Give bare numbers, in %.

Here are 3 compounds together with their reported answers.
Cc1sc2c(c1C)C(c1ccc(Cl)cc1)=N[C@H](CC(=O)OC(C)(C)C)c1nnc(C)n1-2 : 21
O=C(NCCNCC(O)COc1ccc(O)cc1)N1CCOCC1.O=C(NCCNCC(O)COc1ccc(O)cc1)N1CCOCC1.O=C(O)/C=C/C(=O)O (stereo not drawn) [XAMOTEROL FUMARATE] : 15
Cc1cc(NC(=O)NCCN2CCC(O)(Cc3ccccc3)CC2)c2ccccc2n1 [PALOSURAN] : 10

Please state Population Pyknosed Nuclei (%) for every compound in the list that follows.
1. COc1ccc2c(c1OCc1ccccc1)C[C@@H](C(=O)O)N(C(=O)C(c1ccccc1)c1ccccc1)C2 [OLODANRIGAN]
2. Cn1cc(C(=O)OCC2CCN(CCNS(C)(=O)=O)CC2)c2ccccc21
3. S=C(NCCCc1c[nH]cn1)NCCCN(Cc1ccc(Cl)c(Cl)c1)c1ccc(Br)cn1
4. OCCCNc1cc(-c2ccnc(Nc3cccc(Cl)c3)n2)ccn1
5. N[C@](CC1c2ccccc2Oc2ccccc21)(C(=O)O)[C@H]1C[C@@H]1C(=O)O

Completion:
1: 15; 2: 11; 3: 9; 4: 17; 5: 13

* * *

# Tested on: Fibroblast
# method-summary: Multiplex assay against human fibroblast
# Type: toxicity, cell-based
# particulars: 48 h, 10 µM, compound concentration 10 uM, replicate 1
Please note: Population Hoechst High Intensity Objects (%) exactly at 7% is 0. Only values below 7% get 1.

Prompt: In the record for Cc1nn(C)c2nc(NNC(=O)Nc3cc(Cl)nc(Cl)c3)cc(C(C)C)c12 , is Population Hoechst High Intensity Objects (%) less than 7%?
Completion: 0

Prompt: In the record for Cc1cc(NC(=O)NCCN2CCC(O)(Cc3ccccc3)CC2)c2ccccc2n1 , is Population Hoechst High Intensity Objects (%) less than 7%?
Completion: 1

Prompt: In the record for Cn1cc(C(=O)OCC2CCN(CCNS(C)(=O)=O)CC2)c2ccccc21 , is Population Hoechst High Intensity Objects (%) less than 7%?
Completion: 0

Prompt: In the record for CCCCC[C@H](O)/C=C/[C@H]1[C@H](O)CC(=O)[C@@H]1CCCCCCC(=O)O , is Population Hoechst High Intensity Objects (%) less than 7%?
Completion: 1

Prompt: In the record for O=C(O)CCC/C=C\CC1C(O)CC(O)C1/C=C/C(O)COc1cccc(Cl)c1 (stereo not drawn) , is Population Hoechst High Intensity Objects (%) less than 7%?
Completion: 0

Prompt: In the record for CC(C)C[C@H](CO)Nc1nc(S[C@@H](C)c2ccccc2)nc2nc(N)sc12 , is Population Hoechst High Intensity Objects (%) less than 7%?
Completion: 1

Prompt: In the record for Cc1cc(=O)n(C)c2cc(N3C(=O)CC[C@H](NS(=O)(=O)CC(C)C)[C@H]3c3ccc(Cl)cc3)ccc12 , is Population Hoechst High Intensity Objects (%) less than 7%?
Completion: 0

Prompt: In the record for COc1cc2nc(N3CCN(C(=O)c4ccco4)CC3)nc(N)c2cc1OC.Cl [PRAZOSIN HYDROCHLORIDE] , is Population Hoechst High Intensity Objects (%) less than 7%?
Completion: 1

Prompt: In the record for COCCCN1CCC(NC(=O)c2cc(Cl)c(N)c3c2OCC3)CC1 [PRUCALOPRIDE] , is Population Hoechst High Intensity Objects (%) less than 7%?
Completion: 1

Prompt: In the record for CN(C)C/C=C/C(=O)Nc1ccc(C(=O)N2CCCC(Nc3ncc(Cl)c(-c4c[nH]c5ccccc45)n3)C2)cc1 (stereo not drawn) , is Population Hoechst High Intensity Objects (%) less than 7%?
Completion: 0

Prompt: In the record for COc1c(Nc2ccc(S(C)(=O)=O)nc2C)ncnc1OC1CCN(C(=O)OC(C)C)CC1 , is Population Hoechst High Intensity Objects (%) less than 7%?
Completion: 0

Prompt: In the record for CC(C)(C)c1ccc(CSc2cnn(C(C)(C)C)c(=O)c2Cl)cc1 , is Population Hoechst High Intensity Objects (%) less than 7%?
Completion: 1

Prompt: In the record for OCCCNc1cc(-c2ccnc(Nc3cccc(Cl)c3)n2)ccn1 , is Population Hoechst High Intensity Objects (%) less than 7%?
Completion: 0

Prompt: In the record for COc1ccc2c(c1OCc1ccccc1)C[C@@H](C(=O)O)N(C(=O)C(c1ccccc1)c1ccccc1)C2 , is Population Hoechst High Intensity Objects (%) less than 7%?
Completion: 1

Prompt: In the record for S=C(NCCCc1c[nH]cn1)NCCCN(Cc1ccc(Cl)c(Cl)c1)c1ccc(Br)cn1 , is Population Hoechst High Intensity Objects (%) less than 7%?
Completion: 1

Prompt: In the record for Cc1cc(-c2ccc3c(c2)CC[C@H]3N2CC3(CCN(C(=O)Cc4cn5cc(C)sc5n4)CC3)C2)ncn1 , is Population Hoechst High Intensity Objects (%) less than 7%?
Completion: 1
